Ref: the supplement of paper PMC9112550

Assignment: determine reported shrunken log2 fold change for the given sequences.
# Test system: Escherichia coli TOP10
# assay: shrunken log2 fold change of peptide-encoding DNA abundance (4.5 h post-induction vs induction); higher = less antimicrobial activity (less host growth inhibition)
# recorded_conditions: time post-induction: 4.5 h; library: site-saturation at positions 5, 18, 19, 20
Respond numerically, and do not add a unit to the figure.

Given the entry RRIRLRPPRLPRPRPRPAFDPRP , what shrunken log2 fold change was observed with Escherichia coli TOP10?
-0.0259

Given the entry RRIRVRPPRLPRPRPRPPVYPRP , what shrunken log2 fold change was observed with Escherichia coli TOP10?
-0.329

Given the entry RRIRARPPRLPRPRPRPDPHPRP , what shrunken log2 fold change was observed with Escherichia coli TOP10?
0.373

Given the entry RRIRHRPPRLPRPRPRPDTDPRP , what shrunken log2 fold change was observed with Escherichia coli TOP10?
-0.0683

Given the entry RRIRCRPPRLPRPRPRPISGPRP , what shrunken log2 fold change was observed with Escherichia coli TOP10?
0.0437

Given the entry RRIRYRPPRLPRPRPRPDNQPRP , what shrunken log2 fold change was observed with Escherichia coli TOP10?
-0.644

Given the entry RRIRPRPPRLPRPRPRPTMYPRP , what shrunken log2 fold change was observed with Escherichia coli TOP10?
0.125

Given the entry RRIRPRPPRLPRPRPRPWYCPRP , what shrunken log2 fold change was observed with Escherichia coli TOP10?
-0.111

Given the entry RRIRCRPPRLPRPRPRPALHPRP , what shrunken log2 fold change was observed with Escherichia coli TOP10?
0.179

Given the entry RRIRCRPPRLPRPRPRPKTQPRP , what shrunken log2 fold change was observed with Escherichia coli TOP10?
0.0268

Given the entry RRIRQRPPRLPRPRPRPSYMPRP , what shrunken log2 fold change was observed with Escherichia coli TOP10?
-0.301

Given the entry RRIRQRPPRLPRPRPRPPCIPRP , what shrunken log2 fold change was observed with Escherichia coli TOP10?
-0.053

Given the entry RRIRCRPPRLPRPRPRPWQIPRP , what shrunken log2 fold change was observed with Escherichia coli TOP10?
-0.153

Given the entry RRIRNRPPRLPRPRPRPHYVPRP , what shrunken log2 fold change was observed with Escherichia coli TOP10?
-0.121

Given the entry RRIRGRPPRLPRPRPRPMIEPRP , what shrunken log2 fold change was observed with Escherichia coli TOP10?
0.953

* * *

Assignment: determine reported shrunken log2 fold change for the given sequences.
# Test system: Escherichia coli TOP10;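 note: peptides expressed intracellularly from a pBAD plasmid library in pooled LB shake-flask culture, induced with 0.3% L-arabinose, DNA abundance read by NGS, three biological replicates, DESeq2 with apeglm shrinkage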
# assay: shrunken log2 fold change of peptide-encoding DNA abundance (4.5 h post-induction vs induction); higher = less antimicrobial activity (less host growth inhibition)
# recorded_conditions: time post-induction: 4.5 h; library: site-saturation at positions 5, 18, 19, 20
Respond numerically, and do not add a unit to the figure.

State the recorded shrunken log2 fold change for this entry: RRIRARPPRLPRPRPRPIHKPRP
-0.0416

State the recorded shrunken log2 fold change for this entry: RRIRPRPPRLPRPRPRPILCPRP
0.179

State the recorded shrunken log2 fold change for this entry: RRIRYRPPRLPRPRPRPMYMPRP
-2.38

State the recorded shrunken log2 fold change for this entry: RRIRVRPPRLPRPRPRPLCMPRP
-0.123

State the recorded shrunken log2 fold change for this entry: RRIRYRPPRLPRPRPRPYRRPRP
-0.00141

State the recorded shrunken log2 fold change for this entry: RRIRLRPPRLPRPRPRPNLYPRP
-0.38

State the recorded shrunken log2 fold change for this entry: RRIRSRPPRLPRPRPRPSKEPRP
-0.0581

State the recorded shrunken log2 fold change for this entry: RRIRTRPPRLPRPRPRPAKHPRP
0.0349

State the recorded shrunken log2 fold change for this entry: RRIRSRPPRLPRPRPRPSIFPRP
-0.511

State the recorded shrunken log2 fold change for this entry: RRIRFRPPRLPRPRPRPMVQPRP
-0.106

State the recorded shrunken log2 fold change for this entry: RRIRHRPPRLPRPRPRPSDNPRP
0.129

State the recorded shrunken log2 fold change for this entry: RRIRARPPRLPRPRPRPNGNPRP
-0.191

State the recorded shrunken log2 fold change for this entry: RRIRTRPPRLPRPRPRPKKAPRP
-0.0102

State the recorded shrunken log2 fold change for this entry: RRIRVRPPRLPRPRPRPCRVPRP
0.00617

State the recorded shrunken log2 fold change for this entry: RRIRGRPPRLPRPRPRPVIVPRP
0.626

State the recorded shrunken log2 fold change for this entry: RRIRNRPPRLPRPRPRPESWPRP
0.362

State the recorded shrunken log2 fold change for this entry: RRIRDRPPRLPRPRPRPKVAPRP
0.458

State the recorded shrunken log2 fold change for this entry: RRIRSRPPRLPRPRPRPKAFPRP
-0.0206

State the recorded shrunken log2 fold change for this entry: RRIRLRPPRLPRPRPRPGRSPRP
0.326

State the recorded shrunken log2 fold change for this entry: RRIRKRPPRLPRPRPRPLVHPRP
0.0415

State the recorded shrunken log2 fold change for this entry: RRIRDRPPRLPRPRPRPMKWPRP
0.139

State the recorded shrunken log2 fold change for this entry: RRIRSRPPRLPRPRPRPKCAPRP
0.0261

State the recorded shrunken log2 fold change for this entry: RRIRHRPPRLPRPRPRPMTTPRP
-0.125

State the recorded shrunken log2 fold change for this entry: RRIRGRPPRLPRPRPRPSMIPRP
0.267

State the recorded shrunken log2 fold change for this entry: RRIRTRPPRLPRPRPRPRWYPRP
-0.288

State the recorded shrunken log2 fold change for this entry: RRIRPRPPRLPRPRPRPWSPPRP
0.121

State the recorded shrunken log2 fold change for this entry: RRIRNRPPRLPRPRPRPLDPPRP
-0.117

State the recorded shrunken log2 fold change for this entry: RRIRGRPPRLPRPRPRPFDGPRP
0.366

State the recorded shrunken log2 fold change for this entry: RRIRIRPPRLPRPRPRPACMPRP
-0.0966

State the recorded shrunken log2 fold change for this entry: RRIRNRPPRLPRPRPRPSTCPRP
-0.186

State the recorded shrunken log2 fold change for this entry: RRIRFRPPRLPRPRPRPKGEPRP
0.35

State the recorded shrunken log2 fold change for this entry: RRIRNRPPRLPRPRPRPNQKPRP
-0.174
